Values compiled from ChEMBL document CHEMBL5058577.

test system: HEK-293T; assay: Multiplex assay against HEK293T; type: toxicity, cell-based; conditions: human, 12 h, 1 µM, compound concentration 1 uM, replicate 2
Listed next: entries and their corresponding Population Healthy Nuclei (%).
Reported Metric: Population Healthy Nuclei (%)

[[record]]
compound_structure_string = "Cc1ccc(F)cc1C(=O)Nc1ccc(C(=O)N2Cc3cccn3Cc3ccccc32)c(Cl)c1"
value = 74

[[record]]
compound_structure_string = "CN(C)c1ccnc2sc3c(=O)n(N4CCCCCC4)cnc3c12"
value = 82

[[record]]
compound_structure_string = "Cc1nc2ccc(Oc3ccc(F)cc3)cc2c(=O)n1C[C@H]1CCCN(C(C)C)C1.Cl"
value = 70

